Reference source for all entries: patent US8148391B2

targetDesc: c-Met (cytoplasmic domain) (Homo sapiens)
Construct: 10 ng/mL c-Met (cytoplasmic domain, Invitrogen Corporation #PV3143); purchased Invitrogen Corporation PV3143
Sequence (P08581 956-1390 limits assumed): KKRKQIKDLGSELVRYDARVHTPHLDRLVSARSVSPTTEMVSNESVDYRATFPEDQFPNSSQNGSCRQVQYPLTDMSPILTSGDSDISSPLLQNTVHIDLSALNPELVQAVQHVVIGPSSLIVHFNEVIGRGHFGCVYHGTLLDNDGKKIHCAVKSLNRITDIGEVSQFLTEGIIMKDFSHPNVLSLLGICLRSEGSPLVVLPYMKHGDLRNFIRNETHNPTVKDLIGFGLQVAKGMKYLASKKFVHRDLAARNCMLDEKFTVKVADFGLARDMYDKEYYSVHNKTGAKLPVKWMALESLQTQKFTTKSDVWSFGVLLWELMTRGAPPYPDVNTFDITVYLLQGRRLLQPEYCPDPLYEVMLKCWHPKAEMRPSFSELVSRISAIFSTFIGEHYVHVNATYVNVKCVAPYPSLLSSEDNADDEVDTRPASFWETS
assayExplanation: c-Met Kinase Assay (same methods as for ALK, with modifications)
Assay type: biochemical
measurementContext: 1 μM ATP (Km level), 10 ng/mL c-Met; read-out: cMet Activity (c-Met kinase inhibition, IC50 class)
pIC50: −log10 of the molar value.
Kindly supply the reported pIC50 values for the records listed here.

Check out these entries, answers already filled in.
| molecule | measuredResult |
| --- | --- |
| Cc1cccc(C(=O)NCC#N)c1Nc1nc(Nc2ccc3c(c2)CCCC(=O)N3C)ncc1Cl [Example 1039] | 6.00 to 7.00 |
| CCN1C(=O)CCCc2ccc(Nc3ncc(Cl)c(Nc4ccc(CC#N)cc4)n3)cc21 [Example 1225] | 5.00 to 6.00 |
| C#CCNC(=O)c1cccc(F)c1Nc1nc(Nc2ccc3c(c2)NC(=O)C(NC(=O)COC)CC3(C)C)ncc1Cl (centres unmarked) [Example 1293] | > 7.00 |

# batch size: 8; output pIC50 per entry
1. CC(C)S(=O)(=O)c1cccc(F)c1Nc1nc(Nc2ccc3c(c2)NC(=O)CCC3)ncc1Cl [Example 1255]
2. COc1cc2c(cc1Nc1ncc(Cl)c(Nc3ccccc3S(=O)(=O)N(C)C)n1)CCN(C(CF)CF)CC2 [Example 1393]
3. CCN1C(=O)CCC(C)(C)c2ccc(Nc3ncc(Cl)c(Nc4ccccc4S(C)(=O)=O)n3)cc21 [Example 1248]
4. CNC(=O)CN1CCc2cc(Nc3ncc(Cl)c(Nc4cc(Cl)ccc4OC)n3)c(OC)cc2CC1 [Example 1118]
5. CC(C)S(=O)(=O)c1cccc(F)c1Nc1nc(Nc2ccc3c(c2)NC(=O)CCC3(C)C)ncc1Cl [Example 1251]
6. CCN1C(=O)C(NC(=O)C(F)(F)F)CCc2c1ccc(Nc1ncc(Cl)c(Nc3ccccc3S(=O)(=O)N(C)C)n1)c2OC (centres unmarked) [Example 1334]
7. COc1cc2c(cc1Nc1ncc(Cl)c(Nc3ccccc3OC)n1)CCN(C(=O)CN(C)C)CC2 [Example 1131]
8. COc1cc2c(cc1Nc1ncc(Cl)c(N[C@@H]3CCCC[C@H]3NS(C)(=O)=O)n1)CCC(N1CCN(C)CC1)CC2 (single isomer, unassigned) [Example 1102]

-- reply
1: 5.00 to 6.00; 2: < 5.00; 3: > 7.00; 4: < 5.00; 5: 5.00 to 6.00; 6: < 5.00; 7: < 5.00; 8: > 7.00
